- protocol.text: in vivo
- Parameters: species or system nude mice
- experimental.context: nude, mouse, total radioactivity, Tumor-to-tissue ratio Liver
*1 amine or outer side, *2 acyl side, *3 side chain or, on linkers, in order; H or OH if unused. Where a SMILES comes first, the peptide text is derived from it. Side-chain parts run from the residue outwards. [ ]: non-standard residue; d: D form. The star is where a group is joined. DOTA = O=C(O)CN1CCN(CC(=O)O)CCN(CC(=O)*)CCN(CC(=O)O)CC1; NH(2-(imidazol-4-yl)ethyl) = c1ncc(CCN*)[nH]1; Suc = O=C(CCC(=O)[*:2])[*:1]
attribute.measured: tissue to tissue ratio at 3 h
# answer = number (no unit)

## Task Annotate the compound NC(=O)[C@H](CCCCNC(=O)CNC(=O)CCC(=O)NCCc1cnc[nH]1)NC(=O)[C@@H](Cc1ccc(O)cc1)NC(=O)[C@H](CCCCNC(=O)CNC(=O)CCC(=O)NCCc1cnc[nH]1)NC(=O)[C@H](Cc1ccccc1)NC(=O)CN1CCN(CC(=O)O)CCN(CC(=O)O)CCN(CC(=O)O)CC1 [Ga-67-IMP 241, metal not drawn] ({DOTA}-FK([Gly-Suc-NH(2-(imidazol-4-yl)ethyl)])[dY]K([Gly-Suc-NH(2-(imidazol-4-yl)ethyl)])-NH2) with its measured tissue to tissue ratio at 3 h.
## Result 13.1

From: patent US7011816B2
